// provenance: patent US8785471B2

assayed.system: blood acetylcholinesterase (Rattus norvegicus, UniProt P37136)
Construct: 0.05 ml each diluted composition was pipetted into 0.5 ml diluted rats blood; from tissue; host or cells: rat whole blood, anticoagulated, diluted 10 times with physiological saline
Sequence (P37136 32-614): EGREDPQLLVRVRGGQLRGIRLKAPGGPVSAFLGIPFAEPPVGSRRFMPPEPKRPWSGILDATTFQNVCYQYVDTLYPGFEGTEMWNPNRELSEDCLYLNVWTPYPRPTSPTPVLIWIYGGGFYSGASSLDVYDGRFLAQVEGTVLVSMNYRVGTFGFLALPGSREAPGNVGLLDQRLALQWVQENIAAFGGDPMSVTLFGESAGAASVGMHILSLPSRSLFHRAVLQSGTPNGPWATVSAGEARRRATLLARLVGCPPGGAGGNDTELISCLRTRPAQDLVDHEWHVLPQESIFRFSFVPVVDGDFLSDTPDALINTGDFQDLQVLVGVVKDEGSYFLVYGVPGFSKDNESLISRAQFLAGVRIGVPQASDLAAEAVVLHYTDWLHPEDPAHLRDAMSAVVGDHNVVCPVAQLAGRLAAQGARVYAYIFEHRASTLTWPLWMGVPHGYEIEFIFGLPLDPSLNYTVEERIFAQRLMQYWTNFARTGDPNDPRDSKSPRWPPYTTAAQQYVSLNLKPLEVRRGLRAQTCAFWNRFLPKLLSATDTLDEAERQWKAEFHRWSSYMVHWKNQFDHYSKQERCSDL
experimental.protocol: Anticholinesterase effect on rat blood acetylcholinesterase
Format: biochemical, rats
metric: IC50 (µM)
Numeric only. Scale: µM

stdin: Field: IC50 (blood acetylcholinesterase (Rattus norvegicus, UniProt P37136)). Entry: O=C1CCC[C@@H]2[C@H]3CCC[N+]4([O-])CCC[C@@H](CN12)[C@@H]34 (stereo partly shown)
stdout: 2780
